Hill coefficient by entry:
assay: Hill coefficient was determined; assay type: ADME
Reply with the value as a number alone.

smiles_repr | attribute_measured | observed_result
CC(=O)N[C@@H](Cc1c[nH]cn1)C(=O)N[C@H](Cc1ccccc1)C(=O)N[C@@H](CCCN=C(N)N)C(=O)N[C@@H](Cc1c[nH]c2ccccc12)C(=O)NCCC(=O)NCC(=O)NCCC(=O)NCC(=O)NCCC(=O)N[C@@H](Cc1c[nH]cn1)C(=O)N[C@H](Cc1ccccc1)C(=O)N[C@@H](CCCN=C(N)N)C(=O)N[C@@H](Cc1c[nH]c2ccccc12)C(N)=O | Hill coefficient | 1.09
CCCC[C@H](NC(C)=O)C(=O)N[C@@H](CCC(=O)O)C(=O)N[C@@H](Cc1c[nH]cn1)C(=O)N[C@H](Cc1ccccc1)C(=O)N[C@@H](CCCN=C(N)N)C(=O)N[C@@H](Cc1c[nH]c2ccccc12)C(=O)NCCCOCCOCCOCCCNC(=O)CCC(=O)N[C@@H](CCCC)C(=O)N[C@@H](CCC(=O)O)C(=O)N[C@@H](Cc1c[nH]cn1)C(=O)N[C@H](Cc1ccccc1)C(=O)N[C@@H](CCCN=C(N)N)C(=O)N[C@@H](Cc1c[nH]c2ccccc12)C(N)=O | Hill coefficient | 1.59

Okay, next one:
Request: Look at this compound and give its reported Hill coefficient. CC(=O)N[C@@H](Cc1c[nH]cn1)C(=O)N[C@H](Cc1ccccc1)C(=O)N[C@@H](CCCN=C(N)N)C(=O)N[C@@H](Cc1c[nH]c2ccccc12)C(=O)NCCC(=O)N[C@@H](Cc1c[nH]cn1)C(=O)N[C@H](Cc1ccccc1)C(=O)N[C@@H](CCCN=C(N)N)C(=O)N[C@@H](Cc1c[nH]c2ccccc12)C(N)=O
Result: 1.39

All values here come from ChEMBL document CHEMBL1146694.
